Target: T1, human Trop-2-ECD-6His fusion protein (human, UniProt P09758 27-274)
T1 construct: Expressed in a human 293 cell line; also called huTrop-2; human Trop-2 antigen
T1 sequence: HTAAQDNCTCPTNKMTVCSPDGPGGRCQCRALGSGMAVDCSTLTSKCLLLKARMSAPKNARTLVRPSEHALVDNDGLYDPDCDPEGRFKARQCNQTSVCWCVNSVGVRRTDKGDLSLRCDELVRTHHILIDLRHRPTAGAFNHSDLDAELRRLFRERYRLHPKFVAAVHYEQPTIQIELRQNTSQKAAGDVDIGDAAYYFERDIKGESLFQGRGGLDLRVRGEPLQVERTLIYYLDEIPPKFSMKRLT
Test: antigen binding ELISA on immobilized human Trop-2-ECD-6His
Entries whose EC50 is below 0.3 nM take Yes; entries at or above 0.3 nM take No.

Q. Answer whether the binder humanized IgG #118-2-5 HuA/LuX (antibody, V domains shown, Full-length IgG expressed in HEK293-6E cells; also called 1 (HuA/LuX); IgG HuA/LuX) VH: QVQLQESGPGLVKPSETLSLTCTVSGFSLTSYGVNWIRQPPGKGLEWIGVMWAGGSTNYNSALMSRVTISVDTSKNQFSLKLSSVTAADTAVYYCARDENWDGAWFAYWGQGTLVTVSS VL: DIVMTQSPDSLAVSLGERATINCKSSQSLLNSGTRKNYLAWYQQKPGQPPKLLIYWASSRESGVPDRFSGSGSGTDFTLTISSLQAEDVAVYYCKQSYNLFTFGGGTKVEIK has EC50 strictly less than 0.3 nM
A. No

Q. Field entry: humanized IgG #118-2-5 HuA/Lu(X1) (antibody, V domains shown, Second round of humanization) VH: QVQLQESGPGLVKPSETLSLTCTVSGFSLTSYGVNWIRQPPGKGLEWIGVMWAGGSTNYNSALMSRVTISVDTSKNQFSLKLSSVTAADTAVYYCARDENWDGAWFAYWGQGTLVTVSS VL: DIVMTQSPSSLAVSLGERATINCKSSQSLLNSGTRKNYLAWYQQKPGQPPKLLIYWASSRESGVPDRFSGSGSGTDFTLTISSLQAEDVAVYYCKQSYNLFTFGGGTKVEIK
A. Yes

Q. Moving on to the next binder: humanized IgG #118-2-5 HuA/Lu(X6) (antibody, V domains shown, Second round of humanization) VH: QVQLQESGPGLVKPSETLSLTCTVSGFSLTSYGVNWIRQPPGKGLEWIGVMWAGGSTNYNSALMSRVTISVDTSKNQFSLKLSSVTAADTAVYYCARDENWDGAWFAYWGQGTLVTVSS VL: DIVMTQSPDSLAVSLGERATINCKSSQSLLNSGTRKNYLAWYQQKPGQPPKLLIYWASSRESGVPDRFSGSGSGTDFTLTISSLQAEDLAVYYCKQSYNLFTFGGGTKVEIK
A. Yes

Q. Same thing, different binder: humanized IgG #118-2-5 HuD/LuY (antibody, V domains shown, Full-length IgG expressed in HEK293-6E cells; also called 8 (HuD/LuY)) VH: QVQLKESGPGLVAPSETLSITCTVSGFSLTSYGVNWIRQPPGKGLEWLGVMWAGGSTNYNSALMSRLTISKDTSKNQVSLKLSSVQAADTAMYYCARDENWDGAWFAYWGQGTLVTVSS VL: DIVMTQSPSSLAVSLGERATMSCKSSQSLLNSGTRKNYLAWYQQKPGQPPKLLISWASSRESGVPDRFSGSGSGTDFTLTISSVQAEDLAVYYCKQSYNLFTFGGGTKVEIK
A. Yes

Q. How about humanized IgG #118-2-5 HuA/Lu(X2) (antibody, V domains shown, Second round of humanization) VH: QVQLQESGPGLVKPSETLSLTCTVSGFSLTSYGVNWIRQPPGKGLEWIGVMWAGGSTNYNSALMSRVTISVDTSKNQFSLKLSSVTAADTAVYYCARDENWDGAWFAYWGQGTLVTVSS VL: DIVMTQSPDSLAVSLGERATMNCKSSQSLLNSGTRKNYLAWYQQKPGQPPKLLIYWASSRESGVPDRFSGSGSGTDFTLTISSLQAEDVAVYYCKQSYNLFTFGGGTKVEIK ?
A. No

Q. Same read-out for humanized IgG #118-2-5 HuA/Lu(X4) (antibody, V domains shown, Second round of humanization) VH: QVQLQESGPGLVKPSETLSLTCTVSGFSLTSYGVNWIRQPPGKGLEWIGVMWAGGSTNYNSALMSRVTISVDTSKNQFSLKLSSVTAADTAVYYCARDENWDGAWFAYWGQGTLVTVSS VL: DIVMTQSPDSLAVSLGERATINCKSSQSLLNSGTRKNYLAWYQQKPGQPPKLLISWASSRESGVPDRFSGSGSGTDFTLTISSLQAEDVAVYYCKQSYNLFTFGGGTKVEIK ?
A. Yes

Q. Do the same for humanized IgG #118-2-5 Hu(A2)/LuX (antibody, V domains shown, Second round of humanization) VH: QVQLQESGPGLVKPSETLSLTCTVSGFSLTSYGVNWIRQPPGKGLEWIGVMWAGGSTNYNSALMSRVTISKDTSKNQFSLKLSSVTAADTAVYYCARDENWDGAWFAYWGQGTLVTVSS VL: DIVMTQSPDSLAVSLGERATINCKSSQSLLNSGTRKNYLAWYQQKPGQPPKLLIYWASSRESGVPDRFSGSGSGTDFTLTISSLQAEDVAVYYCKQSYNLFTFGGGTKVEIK please
A. No

Q. Do the same for humanized IgG #118-2-5 HuA/Lu(X5) (antibody, V domains shown, Second round of humanization) VH: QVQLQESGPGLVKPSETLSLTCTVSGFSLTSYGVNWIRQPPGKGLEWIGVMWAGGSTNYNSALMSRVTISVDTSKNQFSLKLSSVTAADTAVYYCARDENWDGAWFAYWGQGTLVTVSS VL: DIVMTQSPDSLAVSLGERATINCKSSQSLLNSGTRKNYLAWYQQKPGQPPKLLIYWASSRESGVPDRFSGSGSGTDFTLTISSVQAEDVAVYYCKQSYNLFTFGGGTKVEIK please
A. No

Q. # iterate: humanized IgG #118-2-5 Hu(A5)/LuX (antibody, V domains shown, Second round of humanization) VH: QVQLQESGPGLVKPSETLSLTCTVSGFSLTSYGVNWIRQPPGKGLEWIGVMWAGGSTNYNSALMSRVTISVDTSKNQFSLKLSSVTAADTAMYYCARDENWDGAWFAYWGQGTLVTVSS VL: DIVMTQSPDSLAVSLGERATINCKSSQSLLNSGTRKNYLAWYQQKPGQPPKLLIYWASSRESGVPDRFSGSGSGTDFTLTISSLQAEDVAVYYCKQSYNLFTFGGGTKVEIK
A. No

Q. Would you kindly repeat that for humanized IgG #118-2-5 Hu(A4)/LuX (antibody, V domains shown, Second round of humanization) VH: QVQLQESGPGLVKPSETLSLTCTVSGFSLTSYGVNWIRQPPGKGLEWIGVMWAGGSTNYNSALMSRVTISVDTSKNQFSLKLSSVQAADTAVYYCARDENWDGAWFAYWGQGTLVTVSS VL: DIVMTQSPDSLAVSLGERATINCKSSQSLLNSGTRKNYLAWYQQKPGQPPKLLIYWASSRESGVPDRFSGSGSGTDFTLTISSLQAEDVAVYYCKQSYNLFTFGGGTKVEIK ?
A. No
